Numbers sourced from ChEMBL document CHEMBL4417622.

Target: Progesterone receptor (Homo sapiens)
Sequence (P06401 whole entry): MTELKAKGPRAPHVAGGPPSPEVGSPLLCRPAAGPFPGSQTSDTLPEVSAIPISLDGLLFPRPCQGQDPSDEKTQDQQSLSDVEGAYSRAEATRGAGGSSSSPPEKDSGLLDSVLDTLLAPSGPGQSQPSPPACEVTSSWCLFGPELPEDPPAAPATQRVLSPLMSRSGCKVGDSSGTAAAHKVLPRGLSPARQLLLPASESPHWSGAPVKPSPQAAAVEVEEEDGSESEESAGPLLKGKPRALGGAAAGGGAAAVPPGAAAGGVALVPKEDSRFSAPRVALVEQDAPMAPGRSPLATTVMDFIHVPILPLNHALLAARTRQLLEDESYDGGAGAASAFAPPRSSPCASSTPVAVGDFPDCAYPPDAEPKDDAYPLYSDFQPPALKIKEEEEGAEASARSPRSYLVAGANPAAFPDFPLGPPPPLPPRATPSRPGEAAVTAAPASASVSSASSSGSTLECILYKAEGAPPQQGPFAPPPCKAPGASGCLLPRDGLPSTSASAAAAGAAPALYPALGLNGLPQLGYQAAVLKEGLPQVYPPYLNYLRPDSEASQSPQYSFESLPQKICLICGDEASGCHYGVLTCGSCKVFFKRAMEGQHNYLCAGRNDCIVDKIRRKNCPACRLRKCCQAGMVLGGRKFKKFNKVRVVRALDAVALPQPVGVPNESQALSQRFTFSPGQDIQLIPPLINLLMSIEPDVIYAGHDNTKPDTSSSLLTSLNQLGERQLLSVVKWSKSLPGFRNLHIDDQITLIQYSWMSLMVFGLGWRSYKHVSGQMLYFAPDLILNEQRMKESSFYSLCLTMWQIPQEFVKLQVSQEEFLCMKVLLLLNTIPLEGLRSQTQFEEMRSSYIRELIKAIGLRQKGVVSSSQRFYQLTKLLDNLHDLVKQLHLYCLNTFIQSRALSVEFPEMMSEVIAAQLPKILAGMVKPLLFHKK
Test: Displacement of [3H]ORG2058 from progesterone receptor in human breast carcinoma cytosol at 0.5 to 3.5 uM by liquid scintillation counting based DCC competitive binding assay
Observable: Activity

1) CC(=O)[C@H]1CC[C@H]2[C@H]3[C@H]([C@H](OC(=O)c4ccccc4)C[C@]12C)[C@@]1(C)CCC(=O)C[C@H]1C[C@H]3OC(=O)c1ccccc1: Not Active
2) CC(=O)[C@H]1CC[C@H]2[C@H]3[C@H]([C@H](OC(=O)c4ccccc4)C[C@]12C)[C@@]1(C)CCC(=O)C[C@H]1C[C@@H]3OC(=O)c1ccccc1: Not Active
3) CC(=O)[C@@]1(O[C@H]2CCCCO2)CC[C@H]2[C@@H]3CC[C@@H]4CC(=O)CC[C@]4(C)[C@H]3[C@H](O[C@H]3CCCCO3)C[C@@]21C: Not Active
4) CC(=O)[C@H]1CC[C@H]2[C@H]3[C@H]([C@H](O[C@@H]4CCCCO4)C[C@]12C)[C@@]1(C)CCC(=O)C[C@H]1C[C@H]3OC(=O)c1ccccc1: Not Active
